molecular target: CD28 (Homo sapiens, UniProt P10747); experiment: Flow binding to Jurkat/IL2 reporter cells (CD28); design: host or cells: Jurkat cells expressing an IL-2-luciferase reporter; conditions: Table E10; 33.3 nM; Jurkats (CD28)

[
  {
    "MOLECULE": "M47I/A71G (protein) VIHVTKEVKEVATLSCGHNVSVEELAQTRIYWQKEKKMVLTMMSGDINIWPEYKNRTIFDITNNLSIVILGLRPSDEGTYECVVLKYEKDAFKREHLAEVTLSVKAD",
    "CD28 MFI at 33.3 nM": 823
  },
  {
    "MOLECULE": "M43I/M47L/A71G (protein) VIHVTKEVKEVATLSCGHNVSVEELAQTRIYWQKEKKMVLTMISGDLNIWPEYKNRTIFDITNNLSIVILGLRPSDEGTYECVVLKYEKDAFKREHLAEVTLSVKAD",
    "CD28 MFI at 33.3 nM": 1000
  },
  {
    "MOLECULE": "E35D/N48K/L72V (protein) VIHVTKEVKEVATLSCGHNVSVEELAQTRIYWQKDKKMVLTMMSGDMKIWPEYKNRTIFDITNNLSIVILAVRPSDEGTYECVVLKYEKDAFKREHLAEVTLSVKAD",
    "CD28 MFI at 33.3 nM": 582
  },
  {
    "MOLECULE": "E35D/M47V/L85M/R94Q (protein) VIHVTKEVKEVATLSCGHNVSVEELAQTRIYWQKDKKMVLTMMSGDVNIWPEYKNRTIFDITNNLSIVILALRPSDEGTYECVVMKYEKDAFKQEHLAEVTLSVKAD",
    "CD28 MFI at 33.3 nM": 23.7
  },
  {
    "MOLECULE": "H18Y/E35D (protein) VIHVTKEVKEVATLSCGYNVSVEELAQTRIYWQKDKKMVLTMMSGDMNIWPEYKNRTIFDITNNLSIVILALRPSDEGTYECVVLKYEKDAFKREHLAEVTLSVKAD",
    "CD28 MFI at 33.3 nM": 479
  },
  {
    "MOLECULE": "Q27L/E35D/M47V/I61V/L85M (protein) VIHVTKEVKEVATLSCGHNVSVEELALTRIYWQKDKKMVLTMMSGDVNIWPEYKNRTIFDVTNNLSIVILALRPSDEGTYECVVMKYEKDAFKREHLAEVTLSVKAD",
    "CD28 MFI at 33.3 nM": 230
  },
  {
    "MOLECULE": "E35D/D46E (protein) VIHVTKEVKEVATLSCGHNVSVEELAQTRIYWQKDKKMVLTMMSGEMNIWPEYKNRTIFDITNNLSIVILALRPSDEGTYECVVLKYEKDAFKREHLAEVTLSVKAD",
    "CD28 MFI at 33.3 nM": 779
  },
  {
    "MOLECULE": "E35D/M47L/A71G/L85M (protein) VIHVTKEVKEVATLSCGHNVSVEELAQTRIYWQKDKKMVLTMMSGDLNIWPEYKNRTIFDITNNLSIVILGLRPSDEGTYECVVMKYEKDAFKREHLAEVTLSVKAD",
    "CD28 MFI at 33.3 nM": 199
  }
]

Reference source: patent US20220177587A1
